- Target Under Test: human NTCP (Homo sapiens)
- Sequence (Q14973 whole entry): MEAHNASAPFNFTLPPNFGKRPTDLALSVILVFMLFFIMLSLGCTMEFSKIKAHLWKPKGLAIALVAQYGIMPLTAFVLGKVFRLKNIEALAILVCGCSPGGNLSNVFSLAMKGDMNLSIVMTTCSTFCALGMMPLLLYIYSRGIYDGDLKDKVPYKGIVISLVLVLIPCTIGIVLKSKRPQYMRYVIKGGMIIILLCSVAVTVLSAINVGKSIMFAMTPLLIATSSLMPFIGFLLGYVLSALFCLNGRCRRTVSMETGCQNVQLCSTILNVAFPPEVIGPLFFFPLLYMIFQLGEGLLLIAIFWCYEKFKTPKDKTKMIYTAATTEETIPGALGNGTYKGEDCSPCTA
- Experiment Description: Screening taurocholate uptake assay (96-well, [14C]taurocholate, 10 µM drug)
- Stated Conditions: combined ranking of functional and binding screening assays
Counter-ions that a name gives are not always drawn.
Below is a list of entries, each paired with its recorded Ranking score value.
Recorded Metric: Ranking score

# Compound, Reported Value
data = [
    ("CCN(C(C)=O)c1cccc(-c2ccnc3c(C#N)cnn23)c1 [Zaleplon]", 584.018),
    ("Clc1cccc(Cl)c1N=C1NCCN1 [Clonidine hydrochloride]", 587.566),
    ("C[C@@H]1C[C@@H]([C@H](O)CC2CC(=O)NC(=O)C2)C(=O)[C@@H](C)C1 [Cycloheximide]", 464.697),
    ("CSc1nc2cc(Cl)c(Oc3cccc(Cl)c3Cl)cc2[nH]1 [Triclabendazole]", 541.575),
    ("CCC(NC(C)C)C(O)c1ccc(O)c(O)c1.CS(=O)(=O)O (centres unmarked) [Isoetharine mesylate salt]", 639.265),
    ("C[N+](C)(C)CCOC(N)=O [Carbachol]", 511.9),
    ("CN1[C@@H]2CC[C@H]1C[C@@H](OC(c1ccccc1)c1ccccc1)C2 [Benztropine mesylate]", 529.655),
    ("N=C(N)c1ccc(OCCCCCOc2ccc(C(=N)N)cc2)cc1 [Pentamidine isethionate]", 489.028),
    ("C#C[C@]1(O)CC[C@H]2[C@@H]3CCc4cc(OC)ccc4[C@H]3CC[C@@]21C [Ethynylestradiol 3-methyl ether]", 552.584),
    ("COc1ccccc1OCC(O)CO (centres unmarked) [Guaifenesin]", 466.326),
    ("OC(CCN1CCCC1)(c1ccccc1)C1CCCCC1 (centres unmarked) [Procyclidine hydrochloride]", 562.821),
    ("C[C@@H]1C[C@H]2[C@@H]3C[C@H](F)C4=CC(=O)C=C[C@]4(C)[C@@]3(F)[C@@H](O)C[C@]2(C)[C@@]1(O)C(=O)COC(=O)C(C)(C)C [Flumethasone pivalate]", 535.546),
    ("CCCC(=O)Nc1ncnc2c1ncn2[C@@H]1O[C@@H]2COP(=O)([O-])O[C@H]2[C@H]1OC(=O)CCC.[Na+] [Bucladesine sodium salt]", 477.022),
    ("N=C(N)N/N=C/c1c(Cl)cccc1Cl [Guanabenz acetate]", 467.541),
    ("NC(=O)OCC(COC(N)=O)c1ccccc1 [Felbamate]", 558.78),
    ("CN(Cc1cnc2nc(N)nc(N)c2n1)c1ccc(C(=O)N[C@@H](CCC(=O)O)C(=O)O)cc1 (racemic) [Amethopterin (R,S)]", 579.365),
    ("C[C@@H]1C[C@H]2[C@@H]3C[C@H](F)C4=CC(=O)C=C[C@]4(C)[C@@]3(Cl)[C@@H](O)C[C@]2(C)[C@H]1C(=O)COC(=O)C(C)(C)C [Clocortolone pivalate]", 1150.27),
]
